Molecular target: hNTS1 (Homo sapiens, UniProt P30989)
Construct: expressed in transfected cells; host or cells: CHO-K1
Sequence (P30989 whole entry): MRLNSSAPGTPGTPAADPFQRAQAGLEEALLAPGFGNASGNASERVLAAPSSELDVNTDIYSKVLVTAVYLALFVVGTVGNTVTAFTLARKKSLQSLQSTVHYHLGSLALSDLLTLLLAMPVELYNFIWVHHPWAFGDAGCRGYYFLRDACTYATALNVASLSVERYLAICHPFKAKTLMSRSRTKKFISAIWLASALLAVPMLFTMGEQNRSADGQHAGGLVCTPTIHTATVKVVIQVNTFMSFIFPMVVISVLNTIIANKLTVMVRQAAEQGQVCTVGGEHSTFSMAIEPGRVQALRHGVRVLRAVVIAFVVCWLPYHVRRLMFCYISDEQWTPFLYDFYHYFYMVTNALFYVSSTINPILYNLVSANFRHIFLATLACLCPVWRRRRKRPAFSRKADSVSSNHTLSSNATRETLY
Assay: Radioligand competition binding with [3H]NT, membranes of CHO-K1 cells expressing hNTS1
Conditions: Table 2; hNTS1 over hNTS2
Where a SMILES comes first, the peptide text is derived from it. [ ]: non-standard residue; d: D form. Ala(indol-4-yl) = N[C@@H](Cc1cccc2[nH]ccc12)C(=O)O; NMeR = CN[C@@H](CCCNC(=N)N)C(=O)O; Tle = CC(C)(C)[C@H](N)C(=O)O; dOrn = NCCC[C@@H](N)C(=O)O; Orn = NCCC[C@H](N)C(=O)O
observed property: hNTS1 Selectivity

Example cases with answers are listed next.
Lab request: please report hNTS1 Selectivity under test system hNTS1 (Homo sapiens, UniProt P30989) for CC[C@H](C)[C@H](NC(=O)[C@H](Cc1ccc(O)cc1)NC(=O)[C@@H]1CCCN1C(=O)[C@H](CCCNC(=N)N)NC(=O)[C@H](N)CCCCN)C(=O)N[C@@H](CC(C)C)C(=O)O [NT02, [D-Lys^8]NT(8-13)] (H-[dK]RPYIL-OH; N-terminus and C-terminus assumed)
4.6

Lab request: please report hNTS1 Selectivity under test system hNTS1 (Homo sapiens, UniProt P30989) for CC[C@H](C)[C@H](NC(=O)[C@H](Cc1ccc(O)cc1)NC(=O)[C@@H]1CCCN1C(=O)[C@H](CCCCN)NC(=O)[C@H](N)CCCNC(=N)N)C(=O)N[C@@H](CC(C)C)C(=O)O [NT15, [D-Arg^8,L-Lys^9]NT(8-13)] (H-[dR]KPYIL-OH; N-terminus and C-terminus assumed)
4.0

Lab request: please report hNTS1 Selectivity under test system hNTS1 (Homo sapiens, UniProt P30989) for CC[C@H](C)[C@H](NC(=O)[C@H](Cc1ccc(O)cc1)NC(=O)[C@@H]1CCCN1C(=O)[C@@H](CCCN)NC(=O)[C@@H](N)CCCNC(=N)N)C(=O)N[C@@H](CC(C)C)C(=O)O [NT24, [D-Orn^9]NT(8-13)] (H-R[dOrn]PYIL-OH; N-terminus and C-terminus assumed)
6.6

Lab request: please report hNTS1 Selectivity under test system hNTS1 (Homo sapiens, UniProt P30989) for CC[C@H](C)[C@H](NC(=O)[C@H](Cc1ccc(O)cc1)NC(=O)[C@@H]1CCCN1C(=O)[C@H](CCCNC(=N)N)NC(=O)[C@@H](N)CCCN)C(=O)N[C@@H](CC(C)C)C(=O)O [NT21, [L-Orn^8]NT(8-13)] (H-[Orn]RPYIL-OH; N-terminus and C-terminus assumed)
5.2

Lab request: please report hNTS1 Selectivity under test system hNTS1 (Homo sapiens, UniProt P30989) for CN[C@@H](CCCNC(=N)N)C(=O)N[C@@H](CCCCN)C(=O)N1CCC[C@H]1C(=O)N[C@@H](Cc1cccc2[nH]ccc12)C(=O)N[C@H](C(=O)N[C@@H](CC(C)C)C(=O)O)C(C)(C)C [NT69L] (H-[NMeR]KP[Ala(indol-4-yl)][Tle]L-OH; C-terminus assumed)
0.7

(I) CC[C@H](C)[C@H](NC(=O)[C@H](Cc1ccc(O)cc1)NC(=O)[C@@H]1CCCN1C(=O)[C@H](N)CCCN)C(=O)N[C@@H](CC(C)C)C(=O)O [NT35, [D-Orn^9]NT(9-13)] (H-[dOrn]PYIL-OH; N-terminus and C-terminus assumed)
(II) CC(C)C[C@H](NC(=O)[C@@H](NC(=O)[C@H](Cc1cccc2[nH]ccc12)NC(=O)[C@@H]1CCCN1C(=O)[C@H](N)CCCCN)C(C)(C)C)C(=O)O [NT72] (H-[dK]P[Ala(indol-4-yl)][Tle]L-OH; N-terminus and C-terminus assumed)
Compare the recorded hNTS1 Selectivity of I and II ; state which is larger. Lab note: record the label of whichever item you select.
II

* * *

Target: hNTS1 (Homo sapiens, UniProt P30989)
Construct: expressed in transfected cells; host or cells: CHO-K1
Assay: Radioligand competition binding with [3H]NT, membranes of CHO-K1 cells expressing hNTS1
Conditions: Table 2; hNTS1 over hNTS2
Where a SMILES comes first, the peptide text is derived from it. [ ]: non-standard residue; d: D form. Ala(indol-4-yl) = N[C@@H](Cc1cccc2[nH]ccc12)C(=O)O; Tle = CC(C)(C)[C@H](N)C(=O)O
observed property: hNTS1 Selectivity

Fill blank: measured hNTS1 Selectivity of the compound CC(C)C[C@H](NC(=O)[C@@H](NC(=O)[C@H](Cc1cccc2[nH]ccc12)NC(=O)[C@@H]1CCCN1C(=O)[C@H](CCCNC(=N)N)NC(=O)[C@H](N)CCCCN)C(C)(C)C)C(=O)O [NT66L] (H-[dK]RP[Ala(indol-4-yl)][Tle]L-OH; N-terminus and C-terminus assumed) is ____.
0.7

Fill blank: measured hNTS1 Selectivity of the compound CC[C@H](C)[C@H](NC(=O)[C@H](Cc1cccc2[nH]ccc12)NC(=O)[C@@H]1CCCN1C(=O)[C@H](CCCNC(=N)N)NC(=O)[C@H](N)CCCCN)C(=O)N[C@@H](CC(C)C)C(=O)O [NT67L, [D-Lys^8,L-neo-Trp^11]NT(8-13)] (H-[dK]RP[Ala(indol-4-yl)]IL-OH; N-terminus and C-terminus assumed) is ____.
2.1

(P) CC[C@H](C)[C@H](NC(=O)[C@H](Cc1ccc(O)cc1)NC(=O)[C@@H]1CCCN1C(=O)[C@@H](CCCN)NC(=O)[C@H](N)CCCN)C(=O)N[C@@H](CC(C)C)C(=O)O [NT28, [D-Orn^8,D-Orn^9]NT(8-13)]
(Q) CC[C@H](C)[C@H](NC(=O)[C@H](Cc1ccc(O)cc1)NC(=O)[C@@H]1CCCN1C(=O)[C@H](CCCN)NC(=O)[C@@H](N)CCCN)C(=O)N[C@@H](CC(C)C)C(=O)O [NT25, [L-Orn^8,L-Orn^9]NT(8-13)]
Compare the recorded hNTS1 Selectivity of P and Q ; state which is larger. Lab note: record the label of whichever item you select.
P
(P: 3.2, Q: 1.3)

* * *

Target: hNTS1 (Homo sapiens)
Construct: expressed in transfected cells; host or cells: CHO-K1
Assay: Radioligand competition binding with [3H]NT, membranes of CHO-K1 cells expressing hNTS1
Settings: read-out: hNTS1 Geometric Mean ∀ SEM (equilibrium dissociation constant Kd)
Where a SMILES comes first, the peptide text is derived from it. [ ]: non-standard residue; d: D form. Ala(indol-4-yl) = N[C@@H](Cc1cccc2[nH]ccc12)C(=O)O; Tle = CC(C)(C)[C@H](N)C(=O)O; Orn = NCCC[C@H](N)C(=O)O; Dab = NCC[C@H](N)C(=O)O
observed property: Kd (nM)

Example cases with answers are listed next.
Fill blank: measured Kd of the molecule CC[C@H](C)[C@H](NC(=O)[C@H](Cc1ccc(O)cc1)NC(=O)[C@@H]1CCCN1C(=O)[C@H](CCN)NC(=O)[C@@H](N)CCN)C(=O)N[C@@H](CC(C)C)C(=O)O [NT31, [DAB^8,DAB^9]NT(8-13)] (H-[Dab][Dab]PYIL-OH; N-terminus and C-terminus assumed) is ____.
2.1

Fill blank: measured Kd of the molecule CC[C@H](C)[C@H](NC(=O)[C@H](Cc1ccc(O)cc1)NC(=O)[C@@H]1CCCN1C(=O)[C@H](CCCNC(=N)N)NC(=O)[C@@H](N)CCCN)C(=O)N[C@@H](CC(C)C)C(=O)O [NT21, [L-Orn^8]NT(8-13)] (H-[Orn]RPYIL-OH; N-terminus and C-terminus assumed) is ____.
0.41

Fill blank: measured Kd of the molecule CC[C@H](C)[C@H](NC(=O)[C@H](Cc1ccc(O)cc1)NC(=O)[C@@H]1CCCN1C(=O)[C@H](CCCNC(=N)N)NC(=O)[C@@H](N)CCN)C(=O)N[C@@H](CC(C)C)C(=O)O [NT29, [DAB^8]NT(8-13)] (H-[Dab]RPYIL-OH; N-terminus and C-terminus assumed) is ____.
1.2

Fill blank: measured Kd of the molecule CC[C@H](C)[C@H](NC(=O)[C@H](Cc1cccc2[nH]ccc12)NC(=O)[C@@H]1CCCN1C(=O)[C@H](CCCNC(=N)N)NC(=O)[C@H](N)CCCCN)C(=O)N[C@@H](CC(C)C)C(=O)O [NT67L, [D-Lys^8,L-neo-Trp^11]NT(8-13)] (H-[dK]RP[Ala(indol-4-yl)]IL-OH; N-terminus and C-terminus assumed) is ____.
0.59

Fill blank: measured Kd of the molecule CC(C)C[C@H](NC(=O)[C@@H](NC(=O)[C@H](Cc1c[nH]c2ccccc12)NC(=O)[C@@H]1CCCN1C(=O)[C@H](CCCNC(=N)N)NC(=O)[C@H](N)CCCCN)C(C)(C)C)C(=O)O [NT66T, [D-Lys^8,L-Trp^11,tert-Leu^12]NT(8-13)] (H-[dK]RPW[Tle]L-OH; N-terminus and C-terminus assumed) is ____.
140

Fill blank: measured Kd of the molecule CC[C@H](C)[C@H](NC(=O)[C@H](Cc1cccc2[nH]ccc12)NC(=O)[C@@H]1CCCN1C(=O)[C@H](N)CCCCN)C(=O)N[C@@H](CC(C)C)C(=O)O [NT73, [D-Lys^9,L-neo-Trp^11]NT(9-13)] (H-[dK]P[Ala(indol-4-yl)]IL-OH; N-terminus and C-terminus assumed) is ____.
30

(P) CC[C@H](C)[C@H](NC(=O)[C@H](Cc1ccc(O)cc1)NC(=O)[C@@H]1CCCN1C(=O)[C@@H](CCCN)NC(=O)[C@H](N)CCCN)C(=O)N[C@@H](CC(C)C)C(=O)O [NT28, [D-Orn^8,D-Orn^9]NT(8-13)]
(Q) CC[C@H](C)[C@H](NC(=O)[C@H](Cc1ccc(O)cc1)NC(=O)[C@@H]1CCCN1C(=O)[C@H](CCCN)NC(=O)[C@@H](N)CCCN)C(=O)N[C@@H](CC(C)C)C(=O)O [NT25, [L-Orn^8,L-Orn^9]NT(8-13)]
Compare the recorded Kd of P and Q ; state which is larger. Lab note: record the label of whichever item you select.
P
(P: 600 nM, Q: 3 nM)

Cited source for all entries: patent US20110263507A1
